Recorded composite z-score by entry
- Test system: glycogen synthase kinase-3 (GSK3A per assay name; protocol says GSK3B)
- assay_notes: compounds binding glycogen synthase kinase-3 – biochemical, small-molecule microarray, 635 nm fluorescence, GSK3A, primary screen (AID 1103); also: the record names both GSK3A and GSK3B
- measurement_setup: fluorescence 635 nm, higher = more signal
property_measured: composite z-score

compound	system_tested	result
C=CCC(OC(C)=O)[C@@H]1[C@@H](N(Cc2ccc(-c3ccccc3)cc2)C(=O)Cc2ccc(F)cc2)c2cc(OCCCO)ccc2N1C(=O)c1ccc2ccccc2c1 (some centres not stated)	glycogen synthase kinase-3 (GSK3A per assay name; protocol says GSK3B)	0.0557
[N-]=[N+]=Nc1ccccc1C[C@]1(C(=O)NCC(O)CO)N=C(c2ccc(OCCCO)cc2)O[C@H]1c1ccccc1 (some centres not stated)	glycogen synthase kinase-3 (GSK3A per assay name; protocol says GSK3B)	0.544
C=C(CCCC)C(=O)CC[C@H](OC(=O)c1cccnc1)c1ccc(OCCO)cc1	glycogen synthase kinase-3 (GSK3A per assay name; protocol says GSK3B)	-0.0084
O=C(O)[C@H](Cc1ccccc1)n1cc(-c2ccccc2)nn1	glycogen synthase kinase-3 (GSK3A per assay name; protocol says GSK3B)	0.569
CCCCC(=C=CC[C@H](O)c1cccc(OCCO)c1)C[C@H](O)c1ccccn1	glycogen synthase kinase-3 (GSK3A per assay name; protocol says GSK3B)	-0.364
COC(=O)[C@]1(Cc2ccccc2)N=C(c2ccc(OCCCO)cc2)O[C@@H]1c1ccccc1N=[N+]=[N-]	glycogen synthase kinase-3 (GSK3A per assay name; protocol says GSK3B)	0.519
O=C1NC(=O)C2C1C=CC(C(O)C1CC=CCC1)N2Nc1ccccn1 (configuration not stated)	glycogen synthase kinase-3 (GSK3A per assay name; protocol says GSK3B)	0.0089
CO[C@H]1O[C@H](CO)[C@@H](OC(=O)Nc2cccc(F)c2)[C@H](OC(=O)Nc2ccccc2)[C@H]1OC(=O)Nc1ccccc1	glycogen synthase kinase-3 (GSK3A per assay name; protocol says GSK3B)	1.35
COc1ccccc1CN1C(=O)c2ccccc2[C@@H](C(=O)NCc2ccccc2)[C@@H]1c1ccc(CO)cc1	glycogen synthase kinase-3 (GSK3A per assay name; protocol says GSK3B)	0.883
O=c1cccc(-c2ccccc2Cl)o1	glycogen synthase kinase-3 (GSK3A per assay name; protocol says GSK3B)	0.0083
C=CC[C@]1(C(N)=O)COC(c2ccc(OCCCO)cc2)=N1	glycogen synthase kinase-3 (GSK3A per assay name; protocol says GSK3B)	-0.557
O=C1OCCC=C[C@H]2OC34C=CCN(CCN5CCOCC5)C(=O)[C@H]3N(CCCCCO)C(=O)[C@@H]4C12 (some centres not stated)	glycogen synthase kinase-3 (GSK3A per assay name; protocol says GSK3B)	0.454
COCCOC(=O)N1C(=O)[C@@]2(c3ccccc31)[C@H](C(N)=O)[C@H]1C(=O)O[C@H](c3ccccc3)[C@H](c3ccccc3)N1[C@@H]2c1ccc(O)cc1	glycogen synthase kinase-3 (GSK3A per assay name; protocol says GSK3B)	-0.0985
CC(=CC1CCCCC1)[C@@H](NC(=O)c1cccnc1)c1ccc(-c2ccccc2)cc1	glycogen synthase kinase-3 (GSK3A per assay name; protocol says GSK3B)	-1.11
C=C(/C(=C/C[C@H](OC(C)=O)c1ccc(OCCO)cc1)c1cc(C(=O)OC)ccc1OC)C(C)C	glycogen synthase kinase-3 (GSK3A per assay name; protocol says GSK3B)	0.451
C=CC[C@]1(C(=O)NCc2ccccc2)N=C(c2ccc(OCCCO)cc2)O[C@H]1c1ccccc1CN=[N+]=[N-]	glycogen synthase kinase-3 (GSK3A per assay name; protocol says GSK3B)	1.24
O=C(O)[C@@]1(CCS(=O)(=O)c2ccccc2)N=C(c2ccc(OCCCO)cc2)O[C@H]1c1ccccc1	glycogen synthase kinase-3 (GSK3A per assay name; protocol says GSK3B)	-0.123
